Experiment: Cytotoxicity against human HeLa cells after 24 hrs
Type: cell-based
experimental endpoint: CC50 at 24 h (µM)
# value in µM; strip the unit string

[Q] May I ask what CC50 at 24 h has been recorded for N=C(N)NCCCCCCCCNCCCCCCCCNC(=N)NCC1CC1.O=C(O)C(F)(F)F.O=C(O)C(F)(F)F.O=C(O)C(F)(F)F ?
[A] 92.6

###

Test system: Acinetobacter baumannii
Assay: Antibacterial activity against Acinetobacter baumannii ATCC 17978 after 16 to 18 hrs by microbroth dilution method
Type: functional
1 if MIC is below 60 µg/mL. -1 if not; exact matches included in -1.

[Q] Does N=C(N)NCCCCCCCCNCCCCCCCCNC(=N)NCc1ccccc1.O=C(O)C(F)(F)F.O=C(O)C(F)(F)F.O=C(O)C(F)(F)F have MIC strictly under 60 µg/mL?
[A] -1

[Q] Does CC(C)=CCNC(=N)NCCCCCCN1CCCCCCCCNC(=N)NC1=O.O=C(O)C(F)(F)F.O=C(O)C(F)(F)F have MIC strictly under 60 µg/mL?
[A] -1

[Q] Does N=C(NCCCCCCCCN1CCCCCCCCNC(=N)NC1=O)NCC1CCC1.O=C(O)C(F)(F)F.O=C(O)C(F)(F)F have MIC strictly under 60 µg/mL?
[A] 1

[Q] Does CN(CCCCCCCCNCCCCCCCCNC(=N)N)C(=N)NCC1CC1.O=C(O)C(F)(F)F.O=C(O)C(F)(F)F.O=C(O)C(F)(F)F have MIC strictly under 60 µg/mL?
[A] -1

[Q] Does CCNC(=N)NCCCCCCN1CCCCCCCCNC(=N)NC1=O.O=C(O)C(F)(F)F.O=C(O)C(F)(F)F have MIC strictly under 60 µg/mL?
[A] -1

[Q] Does C=C(C)CNC(=N)NCCCCCCN1CCCCCCCCNC(=N)NC1=O.O=C(O)C(F)(F)F.O=C(O)C(F)(F)F have MIC strictly under 60 µg/mL?
[A] -1

[Q] Does C#CCNC(=N)NCCCCCCCCNCCCCCCCCNC(=N)N.O=C(O)C(F)(F)F.O=C(O)C(F)(F)F.O=C(O)C(F)(F)F have MIC strictly under 60 µg/mL?
[A] -1

[Q] Does C#CCNC(=N)NCCCCCCN1CCCCCCCCNC(=N)NC1=O.O=C(O)C(F)(F)F.O=C(O)C(F)(F)F have MIC strictly under 60 µg/mL?
[A] -1

[Q] Does C/C=C/CNC(=N)NCCCCCCN1CCCCCCCCNC(=N)NC1=O.O=C(O)C(F)(F)F.O=C(O)C(F)(F)F have MIC strictly under 60 µg/mL?
[A] -1

[Q] Does N=C(NCCCCCCCCN1CCCCCCCCNC(=N)NC1=O)NCC1CC1.O=C(O)C(F)(F)F.O=C(O)C(F)(F)F have MIC strictly under 60 µg/mL?
[A] -1

[Q] Does C=CCNC(=N)NCCCCCCCCN1CCCCCCCCNC(=N)NC1=O.O=C(O)C(F)(F)F.O=C(O)C(F)(F)F have MIC strictly under 60 µg/mL?
[A] -1

[Q] Does N=C(N)NCCCCCCCCNCCCCCCCCNC(=N)NCC1CC1.O=C(O)C(F)(F)F.O=C(O)C(F)(F)F.O=C(O)C(F)(F)F have MIC strictly under 60 µg/mL?
[A] 1

[Q] Does C=C(C)CNC(=N)NCCCCCCCCNCCCCCCCCNC(=N)N.O=C(O)C(F)(F)F.O=C(O)C(F)(F)F.O=C(O)C(F)(F)F have MIC strictly under 60 µg/mL?
[A] -1

[Q] Does C/C=C/CNC(=N)NCCCCCCCCN1CCCCCCCCNC(=N)NC1=O.O=C(O)C(F)(F)F.O=C(O)C(F)(F)F have MIC strictly under 60 µg/mL?
[A] 1

[Q] Does CN(CCCCCCCCNCCCCCCCCNC(=N)N)C(=N)NCc1ccccc1.O=C(O)C(F)(F)F.O=C(O)C(F)(F)F.O=C(O)C(F)(F)F have MIC strictly under 60 µg/mL?
[A] -1

[Q] Does C#CCNC(=N)N(C)CCCCCCCCNCCCCCCCCNC(=N)N.O=C(O)C(F)(F)F.O=C(O)C(F)(F)F.O=C(O)C(F)(F)F have MIC strictly under 60 µg/mL?
[A] -1

[Q] Does C=C(C)CNC(=N)NCCCCCCCCN1CCCCCCCCNC(=N)NC1=O.O=C(O)C(F)(F)F.O=C(O)C(F)(F)F have MIC strictly under 60 µg/mL?
[A] 1

[Q] Does N=C(NCCCCCCCCNCCCCCCCCNC(=N)NCC1CC1)NCC1CC1.O=C(O)C(F)(F)F.O=C(O)C(F)(F)F.O=C(O)C(F)(F)F have MIC strictly under 60 µg/mL?
[A] -1

[Q] Does N=C(N)NCCCCCCNCCCCCCNC(=N)NCC1CC1.O=C(O)C(F)(F)F.O=C(O)C(F)(F)F.O=C(O)C(F)(F)F have MIC strictly under 60 µg/mL?
[A] -1
